# target_entity: N-type calcium channel (α1B (Cav2.2), β3 and α2δ subunits) (Homo sapiens, UniProt Q00975)
# Sequence (Q00975 whole entry): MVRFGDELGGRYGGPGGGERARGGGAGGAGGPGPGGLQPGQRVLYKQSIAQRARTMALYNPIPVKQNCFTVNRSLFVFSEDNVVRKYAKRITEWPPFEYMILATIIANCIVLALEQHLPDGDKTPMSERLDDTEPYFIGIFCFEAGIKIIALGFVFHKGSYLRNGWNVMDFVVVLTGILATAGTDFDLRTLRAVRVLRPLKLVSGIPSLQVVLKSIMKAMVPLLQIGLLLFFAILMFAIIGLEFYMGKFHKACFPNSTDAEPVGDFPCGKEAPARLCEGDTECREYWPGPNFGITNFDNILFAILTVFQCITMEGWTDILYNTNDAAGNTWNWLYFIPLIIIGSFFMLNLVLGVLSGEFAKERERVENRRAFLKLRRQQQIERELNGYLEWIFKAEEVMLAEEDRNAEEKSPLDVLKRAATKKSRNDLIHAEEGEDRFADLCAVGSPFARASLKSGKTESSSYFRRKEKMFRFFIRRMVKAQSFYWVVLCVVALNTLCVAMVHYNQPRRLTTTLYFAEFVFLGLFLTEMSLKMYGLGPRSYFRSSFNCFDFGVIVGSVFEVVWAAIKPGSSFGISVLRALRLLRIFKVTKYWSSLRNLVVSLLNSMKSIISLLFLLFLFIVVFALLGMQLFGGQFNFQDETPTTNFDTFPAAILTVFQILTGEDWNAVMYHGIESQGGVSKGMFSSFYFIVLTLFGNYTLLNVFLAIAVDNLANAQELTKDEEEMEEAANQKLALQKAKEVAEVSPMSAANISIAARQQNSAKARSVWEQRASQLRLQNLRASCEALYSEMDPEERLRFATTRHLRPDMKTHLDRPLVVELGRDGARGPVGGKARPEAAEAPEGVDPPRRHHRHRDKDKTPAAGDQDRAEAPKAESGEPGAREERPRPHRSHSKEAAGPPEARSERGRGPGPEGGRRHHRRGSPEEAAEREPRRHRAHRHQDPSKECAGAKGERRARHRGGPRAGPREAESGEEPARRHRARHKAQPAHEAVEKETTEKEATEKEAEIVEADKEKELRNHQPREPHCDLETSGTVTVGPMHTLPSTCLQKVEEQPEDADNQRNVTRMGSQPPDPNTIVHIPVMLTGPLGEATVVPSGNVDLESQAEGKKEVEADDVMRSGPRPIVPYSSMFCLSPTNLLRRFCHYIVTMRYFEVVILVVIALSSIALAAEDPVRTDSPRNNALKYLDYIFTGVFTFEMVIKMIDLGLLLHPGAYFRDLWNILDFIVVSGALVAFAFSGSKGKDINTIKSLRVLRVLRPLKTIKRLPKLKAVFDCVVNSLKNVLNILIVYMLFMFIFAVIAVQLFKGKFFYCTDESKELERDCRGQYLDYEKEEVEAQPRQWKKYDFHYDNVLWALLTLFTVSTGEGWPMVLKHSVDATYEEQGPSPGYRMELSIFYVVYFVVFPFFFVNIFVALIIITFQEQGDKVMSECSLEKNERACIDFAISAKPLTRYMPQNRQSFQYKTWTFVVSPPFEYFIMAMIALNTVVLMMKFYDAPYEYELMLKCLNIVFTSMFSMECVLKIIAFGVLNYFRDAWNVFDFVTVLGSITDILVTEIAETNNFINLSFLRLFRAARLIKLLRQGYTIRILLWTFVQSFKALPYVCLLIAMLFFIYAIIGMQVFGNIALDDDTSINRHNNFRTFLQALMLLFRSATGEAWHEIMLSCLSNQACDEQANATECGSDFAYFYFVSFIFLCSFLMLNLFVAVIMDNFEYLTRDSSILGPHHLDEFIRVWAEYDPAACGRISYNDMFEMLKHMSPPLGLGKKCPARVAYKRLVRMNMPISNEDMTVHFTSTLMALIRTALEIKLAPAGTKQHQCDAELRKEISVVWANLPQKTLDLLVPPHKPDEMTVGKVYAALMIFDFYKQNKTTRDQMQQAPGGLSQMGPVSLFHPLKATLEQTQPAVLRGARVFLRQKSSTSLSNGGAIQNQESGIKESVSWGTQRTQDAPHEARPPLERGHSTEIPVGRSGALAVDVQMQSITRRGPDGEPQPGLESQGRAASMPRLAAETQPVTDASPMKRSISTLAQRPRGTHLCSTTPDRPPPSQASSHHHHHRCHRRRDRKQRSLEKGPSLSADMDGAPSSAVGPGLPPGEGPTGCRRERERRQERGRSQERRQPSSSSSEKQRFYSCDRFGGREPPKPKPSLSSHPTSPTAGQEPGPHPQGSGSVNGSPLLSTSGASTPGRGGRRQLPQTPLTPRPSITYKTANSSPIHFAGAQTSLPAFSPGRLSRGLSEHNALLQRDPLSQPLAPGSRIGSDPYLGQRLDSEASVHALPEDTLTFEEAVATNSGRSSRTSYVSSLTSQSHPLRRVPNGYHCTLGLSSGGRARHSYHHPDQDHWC
# Sequence (P54284 whole entry partner): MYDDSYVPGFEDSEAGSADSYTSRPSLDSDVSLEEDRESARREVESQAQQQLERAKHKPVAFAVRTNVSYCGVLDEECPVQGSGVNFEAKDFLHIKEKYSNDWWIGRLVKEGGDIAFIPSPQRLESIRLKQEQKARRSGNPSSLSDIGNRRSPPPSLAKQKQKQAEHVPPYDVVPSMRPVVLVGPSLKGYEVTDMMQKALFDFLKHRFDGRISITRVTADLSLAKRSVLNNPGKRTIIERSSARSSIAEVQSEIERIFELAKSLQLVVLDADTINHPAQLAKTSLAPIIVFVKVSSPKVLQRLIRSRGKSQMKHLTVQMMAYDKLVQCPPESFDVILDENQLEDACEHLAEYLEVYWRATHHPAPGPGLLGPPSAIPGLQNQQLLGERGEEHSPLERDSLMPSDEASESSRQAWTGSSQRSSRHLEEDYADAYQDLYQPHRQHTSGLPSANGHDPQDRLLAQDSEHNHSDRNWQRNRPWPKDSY
# Sequence (P54289 25-946 partner limits assumed): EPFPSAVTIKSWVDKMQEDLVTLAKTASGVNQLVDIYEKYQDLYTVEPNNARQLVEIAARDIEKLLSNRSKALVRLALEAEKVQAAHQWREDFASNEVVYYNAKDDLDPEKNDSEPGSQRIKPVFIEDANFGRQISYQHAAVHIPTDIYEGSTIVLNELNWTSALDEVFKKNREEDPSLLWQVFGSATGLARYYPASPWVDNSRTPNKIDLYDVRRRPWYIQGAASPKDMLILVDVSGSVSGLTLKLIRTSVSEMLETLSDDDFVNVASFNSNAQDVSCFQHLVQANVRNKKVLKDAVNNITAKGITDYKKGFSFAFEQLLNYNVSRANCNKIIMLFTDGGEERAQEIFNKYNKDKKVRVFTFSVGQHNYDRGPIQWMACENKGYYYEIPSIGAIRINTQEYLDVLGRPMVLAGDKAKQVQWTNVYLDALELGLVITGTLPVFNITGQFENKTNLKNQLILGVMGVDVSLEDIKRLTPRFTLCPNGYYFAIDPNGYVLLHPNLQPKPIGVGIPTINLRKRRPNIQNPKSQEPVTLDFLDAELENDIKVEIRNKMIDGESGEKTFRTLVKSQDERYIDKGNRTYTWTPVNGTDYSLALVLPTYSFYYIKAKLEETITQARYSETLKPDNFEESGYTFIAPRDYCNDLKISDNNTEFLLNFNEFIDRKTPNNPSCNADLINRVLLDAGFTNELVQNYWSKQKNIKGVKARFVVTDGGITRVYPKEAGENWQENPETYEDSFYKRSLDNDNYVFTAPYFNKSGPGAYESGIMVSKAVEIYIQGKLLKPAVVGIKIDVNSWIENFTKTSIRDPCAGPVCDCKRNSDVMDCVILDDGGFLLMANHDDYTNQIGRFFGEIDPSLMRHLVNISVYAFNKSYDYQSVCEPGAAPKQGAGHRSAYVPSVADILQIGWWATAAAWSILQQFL
# Sequence (P54289 947-1103 partner limits assumed): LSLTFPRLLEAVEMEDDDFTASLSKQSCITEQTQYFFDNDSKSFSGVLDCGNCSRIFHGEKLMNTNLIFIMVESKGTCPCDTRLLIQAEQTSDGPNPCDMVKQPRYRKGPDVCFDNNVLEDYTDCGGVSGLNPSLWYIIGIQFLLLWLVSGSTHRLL
# assay_name: Functional Assay: Antagonism of N-Type Calcium Channel (FDSS calcium mobilization, KCl depolarization)
# Type: cell-based
# experimental_context: 0.33 μM
Label label 1 for high-side inhibition at 0.33 µM (at or above 90%) and label 0 for low-side inhibition at 0.33 µM (below it).

Answered examples (5):
COc1ccccc1-n1nc2c(c1-c1ccc(Cl)cc1)CC(N1CCC(C)(C)C1)C2 (centres unmarked) [Compound 119] ... label 0
COc1ccccc1-n1nc2c(c1-c1ccc(Cl)cc1)CC(N1CCOCC1)C2 (centres unmarked) [Compound 68] ... label 1
COc1ccccc1-n1nc2c(c1-c1ccc(Cl)cc1)CC(C(N)=O)C2 (centres unmarked) [Compound 6] ... label 0
COc1ccccc1-n1nc2c(c1-c1ccc(Cl)cc1)CC(C1CCC(C)(C)CC1)C2 (centres unmarked) [Compound 64] ... label 0
COc1ccccc1-n1nc2c(c1-c1ccc(Cl)cc1)CC1(C2)O[C@@H](C)[C@@H](C)O1 (some centres unmarked) [Compound 102] ... label 1

Prompt: Tell me whether inhibition at 0.33 µM is at least 90% here: COc1ccccc1-n1nc2c(c1-c1ccc(C#N)cc1)CC(CC(C)C)C2 (centres unmarked) [Compound 105]
Response: label 0

Hello, the source for this data is patent US8853418B2, in case you need it.
